Values from the DeepSol protein solubility set

procedure.text: soluble on expression in E. coli; label from the status in PepcDB or PDB records
readout: soluble on expression in E. coli

primary.sequence | recorded.result
MSLPQFSVDLCLFDLDGTIVSTTTAAESAWKKLCRQHGVDPVELFKHSHGARSQEMMKKFFPKLDNTDNKGVLALEKDMADNYLDTVSLIPGAENLLLSLDVDTETQKKLPERKWAIVTSGSPYLAFSWFETILKNVGKPKVFITGFDVKNGKPDPEGYSRARDLLRQDLQLTGKQDLKYVVFEDAPVGIKAGKAMGAITVGITSSYDKSVLFDAGADYVVCDLTQVSVVKNNENGIVIQVNNPLTRDEGHHHHHH | soluble
MTAESPTIRLERYSERHVEGLTALYNDPAVARQVLQMPYQSVEQRRKRLHDSADDDRLLILVALHQGDVIGSASLEQHPRIRRSHSGSIGMGVAVAWQGKGVGSRLLGELLDIADNWMNLRRVELTVYTDNAPALALYRKFGFETEGEMRDYAVRDGRFVDVYSMARLRRVEGRVGE | soluble
KMLDEKFYSKLLGEELDLIICLPPDFSPLYKYPLFIVQDGKDYFQFGKLARHSEELAVNEQIQKAIFIGIPYKTVMDRREKYHPDGEQNEAYIRFLAFELVPYLEERFPSFQMPTSRFL | not soluble
MTTVFDVPAAEMIDKLAGILKENENVVPPQWAGNVKTGVHKDLPPTNDDWWYVRCAAVLRKIYTDGPIGIERLRSVYGGKKDNGSQPYHKAKGSGSIARKSVQQLEAAGFLQKVKDGRTVSAKGRSMMDNAAHELKQELLEKIPELAKYLEHHHHHH | soluble
MVNQPLVSIIIPAYRAENTIAFTVRSVLAQTYDHWQVAIGVDDQVDYLQLLAEQGINDPRLKQVFTGGIGSGEAIARNKAVSICDGDILANLDADDAFASDRLEKLVPLAEKYGVAIDNTGVYNSELVLYKQPFPQRQALNFATAADILSPRIPFFPVFQRQLLGDGWTKVPFAADVLFNLELLSRTEKVAIHPEPLYRYYKRDNSITQSANAFETAEKAYLTILSLLDEGALTLTDAIRQAARQEFSENLALNKVFRRYMEEGRCQNLEQFLDMTNNGQKIEFVSNLNLEHHHHHH | soluble
SLTVFQPLVPPDWKMNLREGSLYAQVAFSAAAGQGFEAGGHGVLKGGSAWMPDNQINGVDFVLPFRFSDGHWQLGIRRPVSLRIGEIVNQVTARNLTADLQGTWPWSEANPLQLSDVSVDLLGGKLTLLQLRMPQRDPALIRLQHISSSELTSAVKVKQFAMSGAVSGALPLWLENNQWIIHDGWLRNDGPMTLRLDKDTADALVADNVSAGAAINWLRYMEISRSWTQINLDNLGVLTLKASINGTSRVEGKSSTVHLNYAHEENIFDLWRSLRFGDNLQAWLEQNATL | not soluble
IEIRSVVYQIEGQPYESRLVYDSSATALQPGLLMAPNWMGVSRGAEDIARAVAAKGYVVLLADLYGQQLRPSNNDEAGAAMTPLKNDRGLLRKRMQAGLDQLLSQADVSLDVSRIATFGFCFGGCCSLELARTGAELKAAISFHGTLDTPNPADASNIKGSVLVLHGASDPLVPKEQLPAFEEEMNAAGVDWQLHSHGGAFHSFTDPHANVPGMMMYDAKVSARAFKSMHDLLKEVFG | not soluble
VTYNLEKRPTTIVLINDTPLNVLLDTGADTSVLTTAHYNRLKYRGRKYQGTGIGGVGGNVETFSTPVTIKKKGRHIKTRMLVADIPVTILGRDILQDLGAKLVL | soluble
MGSDKIHHHHHHEKKDKKENDTSAAQATETDCTAAELVTTEPEAEITISEMIDQRIKEEGKIMMYRMHFGPSKTPLEITEDLNVNIISYDGKELIDYGNSSNRRGETRLGDIIHNKVDYSTYDIGAYGGSWKRHRRVSGGDEKYVEEEGYVQREITTDDSGNNTQMETLYLYSKGTLYTREEGSEVWNQTEKNDNLPVVAFGTFERIKLDGKTYMTFCVRDDLNLIKYIIIPDNKFTENKTVVYDTPGTEGTTVNTVDYLKEYQAVPKEELEQMIVFPGSKKAESSQAAD | not soluble
MGSDKIHHHHHHMGFLAREKVHLKKVVIGGSQDWLKHSYKLFKAIMNRIFGYGNKKSHDQLLQESNQSMNQAQQSLSNRISQLDTQIAQLNFQLQNIQKNLQRSNNKQPSLRKQALKILNKRKQLENMKDSLDSQSWSMTQAQLTNDNLQNTMITINALKQTNNAMKAQYGKINIDKLQDMQDEMLDLIEQGDELQEVLAMNNNSGELDDISDAELDAELDALAQEDFTLPTSENSLGNDMPSYLLGANAPPAFIDEEPNLDTEDKNKALESAQ | not soluble
MGHHHHHHSHMTRVKLQDGVHIIKETKEEVTPEQLKLMRTQDVKYIEMKRVAEAKKIERLKSELHLLDFQGKQQNKHVFFFDTKKEVEQFDVATHLQTAPELVDRVFNRPRIETLQKEKVKGVTNQTGLKRIAKERQKQYNCLTQRIEREKKLFVIAQKIQTRKDLMDKTQKVKVKKETVNFPAIYKFQSRRKR | not soluble
MAHHHHHHMRVLSLLSALCLVSTCRGHRNLFARNNYLQYLRSQNFMQEKPKFQKLNQNYSEDLNEFDNYEDDELDAENVEATSKERVTQKSGTSSSSSENKLEFKNIEKELNNMGEILHEEKDNLLLMGGGRECSVSDKGTLDVSLNSGDIFNLTKYTVEMSSSGILIRDTQNSNVVKEIAFDTVKLPIETIEETRECWKIRSHKETFLFCERSKEARDRWITNMLKALFCYNTNNLTIDEGVQTGLSSKVDIPKESTVDARIAASLKDEPNGSGDNSSHGRAKRKGNNNITISNLKNDKPEIVVN | not soluble
